Entry source: patent US12391675B2

# measured on: NLRP3 (Homo sapiens)
# Sequence (Q96P20 whole entry): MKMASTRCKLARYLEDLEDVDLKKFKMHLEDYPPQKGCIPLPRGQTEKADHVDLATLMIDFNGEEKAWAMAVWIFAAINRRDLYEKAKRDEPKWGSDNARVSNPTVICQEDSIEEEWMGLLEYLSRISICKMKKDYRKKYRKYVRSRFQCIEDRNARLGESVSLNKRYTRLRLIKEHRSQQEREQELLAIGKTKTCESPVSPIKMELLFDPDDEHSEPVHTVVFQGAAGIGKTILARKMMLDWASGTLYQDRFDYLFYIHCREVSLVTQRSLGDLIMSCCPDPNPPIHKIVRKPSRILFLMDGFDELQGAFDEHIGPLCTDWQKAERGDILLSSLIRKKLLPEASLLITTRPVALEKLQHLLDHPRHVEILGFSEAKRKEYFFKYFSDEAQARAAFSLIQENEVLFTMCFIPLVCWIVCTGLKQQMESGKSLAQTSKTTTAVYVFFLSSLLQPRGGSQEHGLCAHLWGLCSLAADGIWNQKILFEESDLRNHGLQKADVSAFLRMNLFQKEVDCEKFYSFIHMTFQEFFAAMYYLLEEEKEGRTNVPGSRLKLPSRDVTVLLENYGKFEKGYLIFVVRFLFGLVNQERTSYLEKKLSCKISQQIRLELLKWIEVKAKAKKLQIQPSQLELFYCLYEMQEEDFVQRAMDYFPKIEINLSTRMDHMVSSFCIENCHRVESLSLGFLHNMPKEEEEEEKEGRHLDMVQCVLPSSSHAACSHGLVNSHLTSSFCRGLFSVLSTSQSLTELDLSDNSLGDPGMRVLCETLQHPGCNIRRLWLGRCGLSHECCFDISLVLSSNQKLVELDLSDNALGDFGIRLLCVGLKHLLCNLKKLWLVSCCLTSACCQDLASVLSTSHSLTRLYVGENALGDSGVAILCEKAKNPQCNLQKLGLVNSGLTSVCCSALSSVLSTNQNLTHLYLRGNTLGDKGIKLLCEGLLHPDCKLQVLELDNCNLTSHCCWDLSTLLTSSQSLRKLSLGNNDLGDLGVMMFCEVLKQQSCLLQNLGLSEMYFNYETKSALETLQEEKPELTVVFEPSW
# assay text: Measurement of IL-1β production in PMA-differentiated THP-1 cells (NLRP3 hIL1B EC50)
The threshold is 1000 nM. Values of EC50 beneath it are tagged 1; values meeting or exceeding it are tagged 0.

• Nc1cc(N[C@H]2C[C@@H]3C[C@@H](O)[C@H]2O3)c2ccc(-c3ccn[nH]3)cc2n1 (single isomer, unassigned) [Example 32B] = 1
• Nc1cc(NCC23CCC(CC2)OC3)c2ccc(-c3ccsc3)cc2n1 [Example 49] = 1
• Nc1nc(NCC2C[C@H]3CC[C@@H]2CC3)c2ccc(-c3cc[nH]n3)cc2n1 (stereo partly drawn) [Example 39] = 1
• Nc1nc(N[C@H]2[C@@H]3COC[C@@H]32)c2ccc(-c3ccn[nH]3)cc2n1 [Example 4] = 1
• Nc1nc(N[C@H]2C[C@@H]3C[C@H]2C[C@H]3O)c2ccc(-c3ccn[nH]3)cc2n1 (single isomer, unassigned) [Example 43B] = 0
• Nc1nc(N[C@@H]2C[C@H]3C[C@H](O)[C@@H]2O3)c2ccc(-c3ccn[nH]3)cc2n1 (racemic) [Example 31B] = 0
• Nc1cc(NC2COCCC23OCCO3)c2ccc(-c3cc[nH]n3)cc2n1 (stereo not drawn) [Example 33] = 0
• Nc1nc(N[C@H]2C[C@@H]3C[C@H]2[C@@H](O)C3)c2ccc(-c3ccn[nH]3)cc2n1 (single isomer, unassigned) [Example 45A] = 0
• Nc1cc(NCC23CCC(CC2)OC3)c2ccc(-c3cc[nH]n3)cc2n1 [Example 48] = 1
• Nc1cc(N[C@H]2[C@@H]3CC[C@@H](C3)[C@H]2CO)c2ccc(-c3ccn[nH]3)cc2n1 (racemic) [Example 17] = 0
• COC(=O)C12CCC(CNc3cc(N)nc4cc(-c5cc[nH]n5)ccc34)(CC1)CC2 [Example 50] = 0
• Nc1nc(N[C@H]2C[C@@H]3C[C@H]2C[C@H]3O)c2ccc(-c3ccn[nH]3)cc2n1 (single isomer, unassigned) [Example 43A] = 0
• Nc1cc(N2C3CCC2COC3)c2ncc(-c3cc[nH]n3)cc2n1 [Example 24] = 1
